Values compiled from patent US20010044445A1.

system: Human peripheral blood mononuclear cells; assay: Human Concanavalin-A Proliferation Assay (Con HU Assay); type: cell-based; conditions: Homo sapiens, PBMC, concanavalin-A stimulated human PBMC, tritiated thymidine
Reported Metric: pIC50
Keep in mind that pIC50 stands for -log10 of concentration in molar terms.

# example entries with known answers
O=C(O)c1cccc(C(=O)Nc2ccc(-n3nc(C(F)(F)F)cc3C(F)(F)F)cc2)c1 [Example 159] = 5.53
O=C(Nc1ccc(-n2nc(C(F)(F)F)cc2C(F)(F)F)cc1)c1ccc(O)c(O)c1 [Example 181] = 5.65
O=C(Nc1ccc(-n2nc(-c3ccoc3)cc2Cl)cc1)c1ccncc1F [Example 356] = 6.61

Input: Give Human peripheral blood mononuclear cells pIC50 for the following molecule: O=C(Nc1ccc(-n2nc(C(F)(F)F)cc2C(F)(F)F)cc1)c1cccc(CO)c1 [Example 51]
Output: 6.11

Input: Give Human peripheral blood mononuclear cells pIC50 for the following molecule: CS(=O)(=O)c1csc(C(=O)Nc2ccc(-n3nc(C(F)(F)F)cc3C(F)(F)F)cc2)c1Cl [Example 165]
Output: 5.17

Input: Give Human peripheral blood mononuclear cells pIC50 for the following molecule: Cc1cc(Br)ccc1NC(=O)Nc1ccc(-n2nc(C(F)(F)F)cc2C(F)(F)F)cc1 [Example 77]
Output: 6.18

Input: Give Human peripheral blood mononuclear cells pIC50 for the following molecule: N#Cc1cc(C(F)(F)F)nn1-c1ccc(NC(=O)c2ccncc2)cc1 [Example 303]
Output: 6.31

Input: Give Human peripheral blood mononuclear cells pIC50 for the following molecule: O=C(Nc1ccc(-n2nc(C(F)(F)F)cc2Br)cc1)c1ccncc1Cl [Example 349]
Output: 6.65

====

The entries below are paired with their reported melting point.

# example entries with known answers
Cc1oncc1C(=O)Nc1ccc(-n2nc(C(F)(F)F)cc2C(F)(F)F)cc1 = 163 to 167 °C
O=C(Nc1cccc(-n2nc(C(F)(F)F)cc2C(F)(F)F)c1)c1c(F)cccc1F = 142 to 143 °C
O=C(Nc1ccc(-n2nc(C(F)(F)F)cc2C(F)(F)F)cc1)c1cc(F)c(F)cc1F = 109 to 111 °C
Cc1nnsc1C(=O)Nc1ccc(-n2nc(C(F)(F)F)cc2OC(F)F)cc1 = 122 to 123 °C
Cc1nnsc1C(=O)Nc1ccc(-n2nc(C(F)(F)F)cc2C(F)(F)F)c(C(F)(F)F)c1 = 134 to 136 °C
O=C(Nc1ccc(-n2nc(C(F)(F)F)cc2C(F)(F)F)cc1)c1cccs1 = > 230 °C
O=C(Nc1ccc(-n2nc(C(F)(F)F)cc2C(F)(F)F)cc1)c1ccc(O)cc1 = > 245 °C
O=C(Nc1ccc(-n2nc(C(F)(F)F)cc2C(F)(F)F)cc1)c1cnc(Cl)c(Cl)c1 = 175 to 177 °C
O=C(Nc1ccc(-n2nc(C(F)(F)F)cc2C(F)(F)F)cc1)c1cc(F)c(F)c(F)c1F = 138 to 140 °C
N#Cc1cccc(/C=C/c2ccc(-n3nc(C(F)(F)F)cc3C(F)(F)F)cc2)c1 = 116 to 117 °C

Input: Entry O=C(CCC(=O)c1ccc(F)cc1)Nc1ccc(-n2nc(C(F)(F)F)cc2C(F)(F)F)cc1 needs its melting point filled in; supply it.
Output: 156 to 158 °C

Input: Entry O=C(Nc1ccc(-n2nc(C(F)(F)F)cc2C(F)(F)F)cc1)c1ccccc1Oc1ccccc1 needs its melting point filled in; supply it.
Output: 108 to 109 °C

Input: Entry O=C(Nc1ccc(-n2nc(C(F)(F)F)cc2C(F)(F)F)cc1)c1ccccc1Br needs its melting point filled in; supply it.
Output: 182 to 184 °C
